experimental.details: solvent given as SMILES
setup.conditions: in CCOC(C)=O
Response field label takes rule met when absorption maximum is strictly below 500 nm and rule not met in all other cases.

1. F[B-]1(F)n2c(cc3c4ccccc4oc32)C(c2ccccc2)=C2C=c3c(oc4ccccc34)=[N+]21 ... rule not met
2. CC1=[N+]2C(=C(Oc3ccc4c(c3)CC[C@@H]3[C@@H]4CC[C@]4(C)C(=O)CC[C@@H]34)c3ccc(C)n3[B-]2(F)F)C=C1c1cc2n(c1)[B-](F)(F)[N+]1=CC=CC1=C2c1c(C)cc(C)cc1C ... rule not met
3. CCn1c2ccccc2c2cc(-c3cc(-c4ccc5c(c4)c4ccccc4n5CC)nc(C#N)n3)ccc21 ... rule met
4. COc1ccc(C2=C3C=c4c(oc5cc6c(cc45)[C@H]4CC[C@]5(C)C(=O)CC[C@H]5[C@@H]4CC6)=[N+]3[B-](F)(F)n3c2cc2c4cc5c(cc4oc23)CC[C@@H]2[C@@H]5CC[C@]3(C)C(=O)CC[C@@H]23)cc1 ... rule not met
5. CN(C)c1ccc(-c2cc3c(ccc4c([N+](=O)[O-])cccc43)c(=O)o2)cc1 ... rule met
6. NS(=O)(=O)c1ccc(N2N=C(c3ccc(O)cc3)CC2c2ccc([N+](=O)[O-])cc2)cc1 (stereo not given) ... rule met
7. Cc1ccc([C@@H]2C[C@](O)(c3ccccn3)C[C@](O)(c3ccccn3)[C@H]2C(=O)c2ccc(N(c3ccccc3)c3ccccc3)cc2)cc1 ... rule met
8. COc1ccc(/C=C/C2=CC(/C=C/c3ccc(OC)c4ccccc34)=[O+][B-](F)(F)O2)c2ccccc12 ... rule not met
9. CC1(C)c2ccccc2N(c2ccc(-c3n[n+]4c(o3)-c3ccccc3O[B-]4(F)F)cc2)c2ccccc21 ... rule met
10. Cc1ccc(-n2c3ccccc3c3cc(C(=C(C#N)C#N)c4ccccc4)ccc32)cc1 ... rule met
11. C#CCNC1=C2C=CC=[N+]2[B-](F)(F)n2cccc21 ... rule met
12. COC(=O)c1nc(-c2cccc3ccccc23)oc1C ... rule met
13. CCn1ncc2c3c(C#N)c4c5ccccc5n(C)c4nc3ccc21 ... rule met
14. CN(C)c1ccc(/C=C/c2nc3c4ccccc4c4ccccc4c3[nH]2)cc1 ... rule met
15. COc1ccc2c(=O)c3c([nH]c2c1)-c1cc(Cl)ccc1NC3(C)C ... rule met
16. CCN1CCN(c2ccc(/N=N/c3ccc([N+](=O)[O-])cc3)cc2)CC1 ... rule met
17. CCC1=C(C)C2=C(c3c(C)cc(C)nc3-c3cccs3)c3c(C)c(CC)c(C)n3[B-](F)(F)[N+]2=C1C ... rule not met
18. CCn1c2ccccc2c2cc(/C=C3\C(=O)c4ccccc4S3(=O)=O)ccc21 ... rule met
19. Cc1ccc(C2=C3C=CC(/C=C/c4ccccc4)=[N+]3[B-](F)(F)n3c(Cl)ccc32)cc1 ... rule not met
20. CCCCCCCCCCCCOc1cc2cc(N(C)C)ccc2cc1C#N ... rule met
21. N#CC(C#N)=Cc1cn(-c2ccccc2)nc1-c1ccc([N+](=O)[O-])cc1 ... rule met
22. CCN(CC)c1ccc(/C=C/C(=O)c2c(O)cc(C)oc2=O)cc1 ... rule met
23. COc1cc(C(=O)O)ccc1O ... rule met
24. CN(C)c1ccc(C#Cc2ccc3ccc4c(C#Cc5ccc(N(C)C)cc5)ccc5ccc2c3c54)cc1 ... rule met
25. CN(C)c1ccc2c3c(ccc2c1)C(=O)CCC3 ... rule met
26. COc1ccc(/C=C/C2=NC(=C\c3ccncc3)/C(=O)N2C)cc1 ... rule met
27. CCC(=O)c1ccc2cc(N(C)C)ccc2c1 ... rule met
28. c1cc2c([nH]c3c4[nH]c5sccc5c4c4nsnc4c23)s1 ... rule met
29. CCn1c2ccccc2c2cc(C#Cc3cc(C#Cc4ccc5c(c4)c4ccccc4n5CC)nc(N4CCCCC4)n3)ccc21 ... rule met
30. c1ccc2cc(-n3cnc4ccccc43)ccc2c1 ... rule met
